src = patent US8563723B2

Here the recorded melting point is given for each entry.

Examples with answers:
{"compound": "CCN/C(=N\\S(=O)(=O)c1cc(O)cc(Cl)c1)N1CC2(C=N1)CCCC2", "melting point": "157 to 158 °C"}
{"compound": "CCN/C(=N\\S(=O)(=O)c1ccc(N)cc1)N1CC2(C=N1)CCCC2", "melting point": "141 to 142 °C"}
{"compound": "CCN/C(=N\\S(=O)(=O)c1ccc(O)cc1)N1CC2(C=N1)CCCCC2", "melting point": "140 to 142 °C"}
{"compound": "CCN/C(=N\\S(=O)(=O)c1cc(O)cc(Cl)c1)N1CC(CC)C=N1 (centres unmarked)", "melting point": "146 to 147 °C"}
{"compound": "CCN/C(=N\\S(=O)(=O)c1ccc(C(N)=O)cc1)N1CC(CC)C=N1 (centres unmarked)", "melting point": "146 to 149 °C"}
{"compound": "CCN/C(=N\\S(=O)(=O)c1cc(O)cc(Cl)c1)N1CC2(C=N1)CCNCC2", "melting point": "112 to 114 °C"}
{"compound": "CCN/C(=N\\S(=O)(=O)c1ccc(O)cc1)N1N=CCC1c1ccccc1 (centres unmarked)", "melting point": "158 to 160 °C"}

Ask | Fill blank: measured melting point of the compound CCN/C(=N\S(=O)(=O)c1cccc(C(N)=O)c1)N1CC(CC)C=N1 (centres unmarked) is ____.
Reply | 164 to 168 °C

---

Here the recorded Ki is given for each entry.
Molecular target: 5-HT6 receptor (Homo sapiens, UniProt P50406)
Sequence (P50406 whole entry): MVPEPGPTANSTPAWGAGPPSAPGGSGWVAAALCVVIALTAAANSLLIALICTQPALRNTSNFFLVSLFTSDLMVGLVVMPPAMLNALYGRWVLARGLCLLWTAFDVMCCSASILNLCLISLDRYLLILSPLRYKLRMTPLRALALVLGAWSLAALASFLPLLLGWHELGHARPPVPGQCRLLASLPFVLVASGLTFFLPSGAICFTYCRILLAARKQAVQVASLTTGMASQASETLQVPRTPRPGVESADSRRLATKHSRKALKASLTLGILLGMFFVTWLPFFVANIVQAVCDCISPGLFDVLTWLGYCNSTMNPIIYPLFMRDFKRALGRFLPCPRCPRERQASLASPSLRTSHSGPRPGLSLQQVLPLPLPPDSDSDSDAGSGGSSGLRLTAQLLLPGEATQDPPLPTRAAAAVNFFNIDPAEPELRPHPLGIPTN
Assay: In vitro affinity for human 5-HT6 receptors ([3H]-LSD binding, CHO cell membranes)
Set-up: host or cells: CHO/Gα16/mtAEQ/h5HT6-A1 cells
Details: [3H]-LSD, membranes of CHO cells with human 5-HT6; main compound table; read-out: 5-HT6 pKi (converted)
Report the figure in nM without appending any unit label.

Examples with answers:
{"compound": "CCN/C(=N\\S(=O)(=O)c1ccc(N)cc1)N1CC(CC)C=N1 (single isomer, unassigned) [Compound 2]", "metric": "Ki", "measured_result": 10}
{"compound": "CCN/C(=N\\S(=O)(=O)c1ccc(CO)cc1)N1CC2(C=N1)CCCC2 [Compound 40]", "metric": "Ki", "measured_result": 631}
{"compound": "CCN/C(=N\\S(=O)(=O)c1ccc(O)cc1)N1CC(CC)C=N1 (single isomer, unassigned) [Compound 20]", "metric": "Ki", "measured_result": 2}

Attention now turns to another entry.
Ask | Fill blank: measured Ki of the compound CCN/C(=N\S(=O)(=O)c1ccc2c(c1)CCN2)N1CC2(C=N1)CCCCC2 [Compound 59] is ____.
Reply | 7.94

---

Target: 5-HT6 receptor (Homo sapiens)
Experiment: In vitro functional activity ((ant)agonism) on human 5-HT6 receptors, CHO-human-5HT6-Aequorin assay
Format: cell-based
Design: host or cells: CHO AequoScreen recombinant cell line (expresses mitochondrial targeted apo-Aequorin)
Details: antagonism of 10^-8 M α-methylserotonin induced luminescence; main compound table; read-out: 5-HT6 pA2 (converted)
Here the recorded log10 Kb is given for each entry.
Scale: decimal log of Kb, Kb in nM.

Examples with answers:
{"compound": "CCN/C(=N\\S(=O)(=O)c1ccc(N)c(Cl)c1)N1CC(CC)C=N1 (single isomer, unassigned) [Compound 12]", "measured_result": 0.00}
{"compound": "CN/C(=N\\S(=O)(=O)c1ccc(N)cc1)N1CC2(C=N1)CCOCC2", "measured_result": 2.20}
{"compound": "CCN/C(=N\\S(=O)(=O)c1ccc(N)cc1)N1CC2(C=N1)CCOCC2", "measured_result": 1.40}
{"compound": "CCN/C(=N\\S(=O)(=O)c1ccc2c(c1)CCN2)N1CC(CC)C=N1 (centres unmarked)", "measured_result": 1.00}
{"compound": "CCN/C(=N\\S(=O)(=O)c1ccc(N)c(Cl)c1)N1CC(CC)C=N1 (single isomer, unassigned) [Compound 11]", "measured_result": -0.30}

Ask | Fill blank: measured log10 Kb of the compound CCN/C(=N\S(=O)(=O)c1cccc(N)c1)N1CC(CC)C=N1 (centres unmarked) is ____.
Reply | 2.00

Ask | Fill blank: measured log10 Kb of the compound CCN/C(=N\S(=O)(=O)c1ccc(O)cc1)N1CC(C)(C)C=N1 is ____.
Reply | 0.70

Ask | Fill blank: measured log10 Kb of the compound CCN/C(=N\S(=O)(=O)c1ccc(O)cc1)N1CC(CC)C=N1 (single isomer, unassigned) [Compound 20] is ____.
Reply | 0.00
